tested on: Staphylococcus aureus; experiment: Antibacterial activity against Staphylococcus aureus ATCC 25923 at 100 ug/ml after 24 hrs by agar well diffusion method; format: functional; conditions: ATCC 25923, 24 h, read-out: IZ
Reported zone of inhibition at 100 µg/mL values for a set of compounds
Response body: numeric value in mm, unit text excluded.

Consider the reported zone of inhibition at 100 µg/mL for these compounds:
Molecular string: N#CSc1c(-c2cc3ccccc3oc2=O)nc2sc(Cc3noc4ccccc34)nn12
Subject of test: Staphylococcus aureus
Unit of measurement: mm
zone of inhibition at 100 µg/mL: 14
--
Molecular string: Brc1ccc(-c2nc3sc(Cc4noc5ccccc45)nn3c2Br)cc1
Subject of test: Staphylococcus aureus
Unit of measurement: mm
zone of inhibition at 100 µg/mL: 13
--
Molecular string: N#CSc1c(-c2ccc(Cl)cc2)nc2sc(Cc3noc4ccccc34)nn12
Subject of test: Staphylococcus aureus
Unit of measurement: mm
zone of inhibition at 100 µg/mL: 18
--
Molecular string: Clc1ccc(-c2nc3sc(Cc4noc5ccccc45)nn3c2Br)cc1
Subject of test: Staphylococcus aureus
Unit of measurement: mm
zone of inhibition at 100 µg/mL: 17

Enquiry: For Staphylococcus aureus, provide zone of inhibition at 100 µg/mL of O=c1oc2ccccc2cc1-c1nc2sc(Cc3noc4ccccc34)nn2c1Br please.
Return: 15

Enquiry: Hi! What's the reported zone of inhibition at 100 µg/mL for c1ccc(-c2cn3nc(Cc4noc5ccccc45)sc3n2)cc1 on Staphylococcus aureus?
Return: 16

Enquiry: Value wanted: zone of inhibition at 100 µg/mL (Staphylococcus aureus) of entry COc1ccc(-c2nc3sc(Cc4noc5ccccc45)nn3c2Br)cc1
Return: 11

Enquiry: API: value(readout= zone of inhibition at 100 µg/mL, system= Staphylococcus aureus, query= O=Nc1c(-c2ccc([N+](=O)[O-])cc2)nc2sc(Cc3noc4ccccc34)nn12 )
Return: 12

Enquiry: Hello, I am looking for reported zone of inhibition at 100 µg/mL with Staphylococcus aureus for Nc1nnc(Cc2noc3ccccc23)s1 . Could you help?
Return: 15

Enquiry: For the record O=[N+]([O-])c1ccc(-c2cn3nc(Cc4noc5ccccc45)sc3n2)cc1 , what value of zone of inhibition at 100 µg/mL is listed for Staphylococcus aureus?
Return: 14

Enquiry: Could you share what zone of inhibition at 100 µg/mL was measured for COc1ccc(-c2nc3sc(Cc4noc5ccccc45)nn3c2N=O)cc1 , tested on Staphylococcus aureus?
Return: 13

Enquiry: Lab note: need zone of inhibition at 100 µg/mL for O=c1oc2ccccc2cc1-c1cn2nc(Cc3noc4ccccc34)sc2n1 on Staphylococcus aureus, anyone have it?
Return: 13

Enquiry: Please tell me: zone of inhibition at 100 µg/mL of Brc1ccc(-c2cn3nc(Cc4noc5ccccc45)sc3n2)cc1 , system Staphylococcus aureus?
Return: 15

Enquiry: // fetch Staphylococcus aureus zone of inhibition at 100 µg/mL for Brc1c(-c2ccccc2)nc2sc(Cc3noc4ccccc34)nn12
Return: 18

Enquiry: Write down the reported zone of inhibition at 100 µg/mL of N#CSc1c(-c2ccc(Br)cc2)nc2sc(Cc3noc4ccccc34)nn12 , test system: Staphylococcus aureus.
Return: 12

Enquiry: # value lookup — system Staphylococcus aureus, readout zone of inhibition at 100 µg/mL, item O=Nc1c(-c2ccc(Br)cc2)nc2sc(Cc3noc4ccccc34)nn12
Return: 16
